The measured values listed here are drawn from paper PMC6274279.

Hi there, I'd appreciate the recorded pIC50 for every entry that follows.
target: AChE from electric eel (Electrophorus electricus)
Sequence (O42275 24-633): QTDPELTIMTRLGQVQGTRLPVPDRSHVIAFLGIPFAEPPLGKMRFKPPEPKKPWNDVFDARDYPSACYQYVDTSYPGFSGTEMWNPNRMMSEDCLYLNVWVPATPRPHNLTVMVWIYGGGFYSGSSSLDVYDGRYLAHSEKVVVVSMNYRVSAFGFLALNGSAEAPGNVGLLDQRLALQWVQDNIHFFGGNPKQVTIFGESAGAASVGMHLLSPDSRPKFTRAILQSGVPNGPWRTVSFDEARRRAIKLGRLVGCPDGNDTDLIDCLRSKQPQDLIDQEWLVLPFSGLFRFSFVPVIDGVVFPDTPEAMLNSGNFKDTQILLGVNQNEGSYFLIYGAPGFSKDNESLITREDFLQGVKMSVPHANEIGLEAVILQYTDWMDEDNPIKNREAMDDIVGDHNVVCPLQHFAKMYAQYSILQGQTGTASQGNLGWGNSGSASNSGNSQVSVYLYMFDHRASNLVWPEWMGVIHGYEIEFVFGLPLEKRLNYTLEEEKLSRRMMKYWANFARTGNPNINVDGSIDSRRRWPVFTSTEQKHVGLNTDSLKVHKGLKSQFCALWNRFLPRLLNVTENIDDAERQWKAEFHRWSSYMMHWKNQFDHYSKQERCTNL
Give bare numbers, as −log10 of the molar value.

Answered examples (5):
[[record]]
smi = "CN(C)C(=O)Oc1ccc(Cl)cc1C(=O)Nc1ccc(C(F)(F)F)cc1"
target_desc = "AChE from electric eel (Electrophorus electricus)"
measured_result = 4.31

[[record]]
smi = "CN(C)C(=O)Oc1ccc(Cl)cc1C(=O)Nc1ccc(F)cc1"
target_desc = "AChE from electric eel (Electrophorus electricus)"
measured_result = 4.12

[[record]]
smi = "CN(C)C(=S)Oc1ccc(Cl)cc1C(=O)Nc1ccc(Br)cc1"
target_desc = "AChE from electric eel (Electrophorus electricus)"
measured_result = 4.23

[[record]]
smi = "CN(C(=O)Oc1ccccc1C(=O)Nc1ccccc1)c1ccccc1"
target_desc = "AChE from electric eel (Electrophorus electricus)"
measured_result = 4.26

[[record]]
smi = "CN(C(=O)Oc1ccc(Cl)cc1C(=O)Nc1ccc(C(F)(F)F)cc1)c1ccccc1"
target_desc = "AChE from electric eel (Electrophorus electricus)"
measured_result = 4.30


Quick one: give me pIC50 for each item below, same order please.
1. CN(C)C(=O)Oc1ccc(Cl)cc1C(=O)Nc1ccc(Cl)cc1
2. CN(C(=O)Oc1ccc(Cl)cc1C(=O)Nc1ccc(Br)cc1)c1ccccc1

Solution:
[4.14, 4.09]
